# Measured target: B2 bradykinin receptor (Homo sapiens)
# Sequence (P30411 whole entry): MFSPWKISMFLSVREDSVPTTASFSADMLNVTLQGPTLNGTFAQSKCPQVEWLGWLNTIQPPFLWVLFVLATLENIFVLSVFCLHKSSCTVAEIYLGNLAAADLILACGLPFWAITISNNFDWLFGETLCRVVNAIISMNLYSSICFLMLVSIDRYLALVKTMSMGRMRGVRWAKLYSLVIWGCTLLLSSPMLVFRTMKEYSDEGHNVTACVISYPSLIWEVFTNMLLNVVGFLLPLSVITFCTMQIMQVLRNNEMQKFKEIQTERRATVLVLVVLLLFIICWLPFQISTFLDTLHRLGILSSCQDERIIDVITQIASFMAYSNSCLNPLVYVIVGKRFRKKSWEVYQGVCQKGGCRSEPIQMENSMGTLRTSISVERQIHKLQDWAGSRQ
# Procedure details: Antagonist potency at human bradykinin B2 receptor assessed as effect on inositol monophosphate accumulation in CHOdhfr- cells
# Type: functional, cell-based
# Experimental context: read-out: pA2 (converted)
Readout type: Kb (pM)

P = Cc1cc(C)c2cccc(OCc3c(Cl)ccc(S(=O)(=O)NC4(C(=O)N5CCN(C(=N)NCCCN(C)C)CC5)CCCC4)c3Cl)c2n1
Q = Cc1cc(C)c2cccc(OCc3c(Cl)ccc(S(=O)(=O)NC4(C(=O)N5CCN(C(=O)[C@@H](N)CCC[N+](C)(C)C)CC5)CCSCC4)c3Cl)c2n1
Input line: Sorting by Kb in descending order, would P or Q appear first? API: response body contains the label of the selected item.
Output line: P

I = Cc1cc(C)c2cccc(OCc3c(Cl)ccc(S(=O)(=O)NC4(C(=O)N5CCN(C(=O)CCCCC[N+](C)(C)C)CC5)CCCC4)c3Cl)c2n1
II = Cc1cc(C)c2cccc(OCc3c(Cl)ccc(S(=O)(=O)NC4(C(=O)N5CCN(C(=O)[C@@H](N)CCCC[N+](C)(C)C)CC5)CCCC4)c3Cl)c2n1
Input line: Could you please tell me which of these two has the higher Kb: I or II ? # respond with the chosen item's label
Output line: I

P = Cc1cc(C)c2cccc(OCc3c(Cl)ccc(S(=O)(=O)NC4(C(=O)N5CCN(C(=O)CCCCCNC(=N)N)CC5)CCCC4)c3Cl)c2n1
Q = Cc1cc(C)c2cccc(OCc3c(Cl)ccc(S(=O)(=O)NC4(C(=O)N5CCN(C(=O)[C@@H](N)CCC[N+](C)(C)C)CC5)CCCC4)c3Cl)c2n1
Input line: Pick one: P or Q . Which one has the lower reported Kb? Kindly state the label of the option you pick.
Output line: Q

Hello, the source for this data is ChEMBL document CHEMBL1141405, in case you need it.
